Tested on: MDAMB175VII
Assay: -log10 GI50 (growth inhibition 50%) (-log10(M)); higher = more potent growth inhibition
Entry flag: 1 if -log10 GI50 reaches 6; 0 if it does not.

Previously resolved entries follow.
CCn1cc(-c2ccnc3[nH]c(-c4cccc(CN(C)C)c4)cc23)c(-c2ccc(NC(=O)N(C)C)cc2)n1    0
COc1ccc(C2=N[C@@H](c3ccc(Cl)cc3)[C@@H](c3ccc(Cl)cc3)N2C(=O)N2CCNC(=O)C2)c(OC(C)C)c1 [Nutlin 3a]    0
Nc1nc2[nH]cc(CCc3ccc(C(=O)N[C@@H](CCC(=O)O)C(=O)O)cc3)c2c(=O)[nH]1 [Pemetrexed]    1
N.N.[Cl][Pt][Cl] [Cisplatin]    0
CC(=O)O[C@H]1C(=O)[C@@]2(C)[C@H]([C@H](OC(=O)c3ccccc3)[C@]3(O)C[C@H](OC(=O)[C@H](O)[C@@H](NC(=O)c4ccccc4)c4ccccc4)C(C)=C1C3(C)C)[C@]1(OC(C)=O)CO[C@@H]1C[C@@H]2O [Paclitaxel]    1

[Q] Item CNC(=O)c1cc(Oc2ccc(NC(=O)Nc3ccc(Cl)c(C(F)(F)F)c3)cc2)ccn1 [Sorafenib] with -log10 GI50 of 6 or above?
[A] 0

[Q] Item CCc1c2c(nc3ccc(OC(=O)N4CCC(N5CCCCC5)CC4)cc13)-c1cc3c(c(=O)n1C2)COC(=O)[C@]3(O)CC [CPT-11] with -log10 GI50 of 6 or above?
[A] 0

[Q] Item O=C(CCCCCCC(=O)Nc1ccccc1)NO [Vorinostat] with -log10 GI50 of 6 or above?
[A] 0

[Q] Item Cn1c(=O)n(-c2ccc(C(C)(C)C#N)cc2)c2c3cc(-c4cnc5ccccc5c4)ccc3ncc21 [BEZ235] with -log10 GI50 of 6 or above?
[A] 1

[Q] Item Cn1ncc(Cl)c1-c1cc(C(=O)N[C@H](CN)Cc2ccc(F)c(F)c2)oc1Cl with -log10 GI50 of 6 or above?
[A] 1

[Q] Item CC(=O)Nc1cccc(-n2c(=O)n(C3CC3)c(=O)c3c(Nc4ccc(I)cc4F)n(C)c(=O)c(C)c32)c1 with -log10 GI50 of 6 or above?
[A] 1

[Q] Item CO[C@H]1C[C@@H]2CC[C@@H](C)[C@@](O)(O2)C(=O)C(=O)N2CCCC[C@H]2C(=O)O[C@H]([C@H](C)C[C@@H]2CC[C@@H](O)[C@H](OC)C2)CC(=O)[C@H](C)/C=C(\C)[C@@H](O)[C@@H](OC)C(=O)[C@H](C)C[C@H](C)/C=C/C=C/C=C/1C [Rapamycin] with -log10 GI50 of 6 or above?
[A] 1

[Q] Item C#Cc1cccc(Nc2ncnc3cc(OCCOC)c(OCCOC)cc23)c1 [Erlotinib] with -log10 GI50 of 6 or above?
[A] 0
